- tested-on: CCKB receptor (Mus musculus, UniProt P56481)
- Construct: The whole brains from male mice (CD1 22-25 g; Charles River) were removed; from tissue; host or cells: cerebral cortex membranes of male CD1 mice
- Sequence (P56481 whole entry): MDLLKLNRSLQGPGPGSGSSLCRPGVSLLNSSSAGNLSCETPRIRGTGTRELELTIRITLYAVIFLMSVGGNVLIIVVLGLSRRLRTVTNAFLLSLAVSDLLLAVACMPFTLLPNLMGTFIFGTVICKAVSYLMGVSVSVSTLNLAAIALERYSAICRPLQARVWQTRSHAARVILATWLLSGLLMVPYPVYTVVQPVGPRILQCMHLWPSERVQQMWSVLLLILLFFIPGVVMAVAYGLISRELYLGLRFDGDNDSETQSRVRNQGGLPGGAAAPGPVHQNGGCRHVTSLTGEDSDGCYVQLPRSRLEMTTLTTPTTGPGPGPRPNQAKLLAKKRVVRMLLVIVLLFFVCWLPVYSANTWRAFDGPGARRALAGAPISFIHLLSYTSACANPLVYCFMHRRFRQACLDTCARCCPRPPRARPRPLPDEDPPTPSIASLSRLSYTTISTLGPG
- assay-notes: CCKB receptor radioligand binding assay in mouse cortical membranes
- assay-setup: [125I]-CCK8(S) 200 pM, 150 min at 21±3°, read-out: CCKB pKi (converted)
quantity-measured: log10 Ki (log10 of the value in nM)
The common logarithm of Ki in nM is what is listed.

{"columns": ["compound", "log10 Ki"],
 "data": [
  ["CC1(CCc2[nH]c(C3CCCCC3)nc2C(=O)Nc2cccc(C(=O)O)c2)CCCCC1 [Example 133]", 2.15],
  ["CCc1ccccc1-c1nc(C(=O)Nc2cccc(C(=O)O)c2)c(CCC23CC4CC(CC(C4)C2)C3)[nH]1 [Example 158]", 2.88],
  ["Cc1c(NC(=O)c2nc(C3CCCCC3)[nH]c2CCC23CC4CC(CC(C4)C2)C3)cccc1C(=O)O [Example 253]", 1.74],
  ["Cc1ccccc1-c1nc(C(=O)Nc2cccc(C(=O)O)c2)c(CC2CCCCCC2)[nH]1 [Example 165]", 3.26],
  ["Cc1ccc(NC(=O)c2nc(-c3ccco3)[nH]c2CCC23CC4CC(CC(C4)C2)C3)cc1C(=O)O [Example 187]", 1.78]
]}

Query :: // fetch log10 Ki given entry O=C(Nc1cc(-c2nnn[nH]2)cc(-c2nnn[nH]2)c1)c1cc(-c2ccccc2)[nH]c1CC12CC3CC(CC(C3)C1)C2 [Example 2]
Result :: 1.69

Query :: Consider the compound Cc1ncccc1-c1nc(C(=O)Nc2cccc(C(=O)O)c2)c(CCC23CC4CC(CC(C4)C2)C3)[nH]1 [Example 181] and give its recorded log10 Ki.
Result :: 2.83

This collection of values is drawn from patent US6479531B1.
